Values were extracted from patent US10981911B2.

Consider molecules characterized by their pIC50 with JAK3-JH1JH2 (Homo sapiens (Human)).
Sequence (P52333 512-1124): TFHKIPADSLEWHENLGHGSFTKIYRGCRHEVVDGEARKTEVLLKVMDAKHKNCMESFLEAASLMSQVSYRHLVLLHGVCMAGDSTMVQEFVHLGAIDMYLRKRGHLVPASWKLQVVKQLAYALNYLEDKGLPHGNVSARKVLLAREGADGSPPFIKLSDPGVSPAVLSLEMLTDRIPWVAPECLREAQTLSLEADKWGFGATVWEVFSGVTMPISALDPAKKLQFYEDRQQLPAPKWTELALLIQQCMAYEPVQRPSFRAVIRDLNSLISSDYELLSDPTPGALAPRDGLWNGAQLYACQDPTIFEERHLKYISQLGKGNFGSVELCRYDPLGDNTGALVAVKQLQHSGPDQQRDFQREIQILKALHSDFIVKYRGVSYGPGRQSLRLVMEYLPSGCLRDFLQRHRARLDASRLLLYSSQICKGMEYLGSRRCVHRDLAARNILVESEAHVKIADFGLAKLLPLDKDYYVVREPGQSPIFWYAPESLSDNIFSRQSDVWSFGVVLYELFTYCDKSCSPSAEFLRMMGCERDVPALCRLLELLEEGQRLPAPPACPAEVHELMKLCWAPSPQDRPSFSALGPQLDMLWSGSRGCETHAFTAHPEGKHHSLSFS
pIC50: −log10 of the molar value.
Readout: pIC50

molecule=N#CCC12CCC(n3c(CC(N)=O)nc4cnc5[nH]ccc5c43)(CC1)CC2 readout=pIC50 numeric_readout=6.06
molecule="N#CC[C@H]1CC[C@H](n2c(CC(=O)NCC(O)CO)nc3cnc4[nH]ccc4c32)CC1 (stereo partly drawn)" readout=pIC50 numeric_readout=6.83
molecule=COC(C)(C)CNC(=O)Cc1nc2cnc3[nH]ccc3c2n1[C@H]1CC[C@H](CC#N)CC1 readout=pIC50 numeric_readout=7.27

A = CC(C)/C(=N/O)NCc1nc2cnc3[nH]ccc3c2n1[C@H]1CC[C@H](CC#N)CC1
B = N#CC[C@H]1CC[C@H](n2c(-c3cccnc3N)nc3cnc4[nH]ccc4c32)CC1
C = N#CCC12CCC(n3c(CC(=O)N4CCCCC4)nc4cnc5[nH]ccc5c43)(CC1)CC2
Q. Write the entries in order, lowest recorded pIC50 first. Order the labels as requested and list them.
A. B, C, A
(B: 5.33, C: 6.36, A: 6.66)

1 = N#CC[C@H]1CC[C@H](n2c(CNC(=O)C3CCCCC3)nc3cnc4[nH]ccc4c32)CC1
2 = N#CC[C@H]1CC[C@H](n2c(CC(=O)NC3CCSCC3)nc3cnc4[nH]ccc4c32)CC1
3 = N#CC[C@H]1CC[C@H](n2c(-c3ccnc(N)n3)nc3cnc4[nH]ccc4c32)CC1
Q. Order the items by recorded pIC50; the first position goes to the largest value. Order the labels as requested and list them.
A. 2, 3, 1
(2: 7.52, 3: 7.21, 1: 6.13)

a = N#CCCC(=O)NCc1nc2cnc3[nH]ccc3c2n1[C@H]1CC[C@H](CC#N)CC1
b = N#CC[C@H]1CC[C@H](NC(=O)Cc2nc3cnc4[nH]ccc4c3n2[C@H]2CC[C@H](CC#N)CC2)CC1
c = CC(C)(CO)CNC(=O)Cc1nc2cnc3[nH]ccc3c2n1[C@H]1CC[C@H](CC#N)CC1
d = N#CC[C@H]1CC[C@H](n2c(CC(=O)Nc3ccc(C#N)cc3)nc3cnc4[nH]ccc4c32)CC1
e = N#CCCS(=O)(=O)NCc1nc2cnc3[nH]ccc3c2n1[C@H]1CC[C@H](CC#N)CC1
Q. Write the entries in order, lowest recorded pIC50 first. Order the labels as requested and list them.
A. a, e, c, b, d
